Reported pEC50 values for a set of compounds
target.desc: human RXFP1 (Homo sapiens)
Construct: expressed in transfected cells
Sequence (Q9HBX9 1-757): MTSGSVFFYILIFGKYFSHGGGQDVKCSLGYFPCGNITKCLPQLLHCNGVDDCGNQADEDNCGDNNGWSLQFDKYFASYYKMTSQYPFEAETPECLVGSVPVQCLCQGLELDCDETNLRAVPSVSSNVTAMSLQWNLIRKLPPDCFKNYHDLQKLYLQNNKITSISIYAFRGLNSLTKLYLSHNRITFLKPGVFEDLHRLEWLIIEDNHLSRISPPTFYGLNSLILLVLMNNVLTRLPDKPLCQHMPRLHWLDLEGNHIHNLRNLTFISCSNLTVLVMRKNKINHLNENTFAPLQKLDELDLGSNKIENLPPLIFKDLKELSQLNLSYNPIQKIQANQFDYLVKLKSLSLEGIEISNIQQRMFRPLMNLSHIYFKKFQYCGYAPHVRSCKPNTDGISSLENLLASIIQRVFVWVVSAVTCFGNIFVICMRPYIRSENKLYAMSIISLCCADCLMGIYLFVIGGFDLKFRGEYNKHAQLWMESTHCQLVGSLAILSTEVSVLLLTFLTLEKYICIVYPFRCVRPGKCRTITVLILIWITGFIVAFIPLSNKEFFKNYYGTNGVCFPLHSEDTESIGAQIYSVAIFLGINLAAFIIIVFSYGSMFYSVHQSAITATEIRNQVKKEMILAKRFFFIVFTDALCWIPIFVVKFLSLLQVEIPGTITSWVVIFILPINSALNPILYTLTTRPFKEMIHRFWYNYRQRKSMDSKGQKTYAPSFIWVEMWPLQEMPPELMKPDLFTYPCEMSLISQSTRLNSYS
assay.method.text: RXFP1 cAMP assay (hRXFP1 HEK293 cAMP assay, HTRF)
Type: cell-based
assay.conditions: HEK293 cells stably expressing human RXFP1, 30 min at room temperature, read-out: cAMP hRXFP1 HEK293 Assay EC50
Just the number, please; pEC50 means minus log10 of the concentration in mol/L.

Known pEC50 results, listed for orientation:
COc1cc(F)c(F)cc1C(=O)N[C@@H]1C2CCC(/C2=C/C(=O)Nc2ccccc2)[C@@H]1C(=O)Nc1ccc(F)c(C(F)(F)F)c1 (stereo partly drawn): 5.34
COc1ccc(-c2ccnc(N3CCOCC3)c2F)cc1C(=O)N[C@H]1[C@@H](C(=O)Nc2ccc(F)c(C(F)(F)F)c2)[C@H]2CC[C@@H]1C2=C(C)C: 6.89
COc1ccc(C2=NOC(CO)C2)cc1C(=O)N[C@@H]1C2CCC(/C2=C/C2CC2)[C@@H]1C(=O)Nc1ccc(F)c(C(F)(F)F)c1 (stereo partly drawn) [compound 380]: 7.64

Exercise: Entry COc1ccc(-c2cc(C(=O)O)ccc2F)cc1C(=O)N[C@@H]1C2CCC(/C2=C/C2CC2)[C@@H]1C(=O)N[C@H](C)c1ccccc1 (stereo partly drawn) has what pEC50?
Key: 5.73

Exercise: What does the data say about its pEC50? Entry: COc1ccc(C2=NOC3COCC23)cc1C(=O)N[C@H]1[C@@H](C(=O)NC2CCC(C(F)(F)F)C2)[C@H]2CC[C@@H]1/C2=C\C1CC1 (stereo partly drawn) [compound 649]
Key: 6.60

Exercise: Return reported pEC50; argument: COc1c(F)cc(C2=NOC3CC(C(C)O)CC23)cc1C(=O)N[C@H]1[C@@H](C(=O)Nc2ccc(F)c(C(F)(F)F)c2)[C@H]2CC[C@@H]1/C2=C\C1CC1 (stereo partly drawn)
Key: 8.57
